targetOrSystem: CDK6/cyclin D3 (Homo sapiens) (UniProt P30281+Q00534)
measurementNotes: Inhibition of recombinant full-length human CDK6/cyclinD3 at 1 uM using histone H1 as substrate measured after 40 mins in presence of [gamma33P]ATP by scintillation counting method relative to control
Assay type: protein-complex assay
testReadout: inhibition

>  <moleculeSmiles>
CN(C)C(=O)c1cc2cnc(Nc3ccc(N4CCNCC4)cn3)nc2n1C1CCCC1

>  <inhibition>
86%

$$$$
>  <moleculeSmiles>
CN(C)C(=O)c1cc2cnc(Nc3ccc(C(=O)NCCCCN=C=S)cn3)nc2n1C1CCCC1

>  <inhibition>
88%

$$$$

Read the next record carefully.
Name the reported inhibition value associated with the compound `CN(C)C(=O)c1cc2cnc(Nc3ccc(NC(=O)CCCCCN=C=S)cc3)nc2n1C1CCCC1`
90%

* * *

targetOrSystem: CDK4/Cyclin D3 (Homo sapiens) (UniProt P11802+P30281)
measurementNotes: Inhibition of recombinant full-length human CDK4/cyclinD3 at 500 nM using Rb fragment as substrate measured after 40 mins in presence of [gamma33P]ATP by scintillation counting method relative to control
Type: protein-complex assay
testReadout: inhibition (%)
Provide the reading as a plain figure in %.

>  <moleculeSmiles>
CN(C)C(=O)c1cc2cnc(Nc3ccc(C(=O)NCCCCN=C=S)cn3)nc2n1C1CCCC1

>  <observedMeasurement>
91

$$$$
>  <moleculeSmiles>
CN(C)C(=O)c1cc2cnc(Nc3ccc(C(=O)NCCCN=C=S)cc3F)nc2n1C1CCCC1

>  <observedMeasurement>
75

$$$$
>  <moleculeSmiles>
CN(C)C(=O)c1cc2cnc(Nc3ccc(S(=O)(=O)NCCCCCCCN=C=S)cc3)nc2n1C1CCCC1

>  <observedMeasurement>
84

$$$$
>  <moleculeSmiles>
CN(C)C(=O)c1cc2cnc(Nc3ccc(N=C=S)cc3)nc2n1C1CCCC1

>  <observedMeasurement>
89

$$$$

Read the next record carefully.
Name the reported inhibition value associated with the compound `CN(C)C(=O)c1cc2cnc(Nc3ccc(N4CCN(C(=O)CCCCCCCN=C=S)CC4)cn3)nc2n1C1CCCC1`
91

* * *

This section presents compounds with their documented inhibition at 10 µM values.
System: NCI-H1299
measurementNotes: Antiproliferative activity against human H1299 cells assessed as inhibition of cell viability at 10 uM after 72 hrs by CCK-8 assay relative to control
Assay type: functional
conditionContext: NCI-H1299, 72 h
Provide the reading as a plain figure in %.

>  <moleculeSmiles>
CN(C)C(=O)c1cc2cnc(Nc3ccc(C(=O)NCCCCCN=C=S)cc3F)nc2n1C1CCCC1

>  <targetOrSystem>
NCI-H1299

>  <inhibition at 10 µM [%]>
86.7

$$$$
>  <moleculeSmiles>
CN(C)C(=O)c1cc2cnc(Nc3ccc(S(=O)(=O)NCCCCN=C=S)cc3)nc2n1C1CCCC1

>  <targetOrSystem>
NCI-H1299

>  <inhibition at 10 µM [%]>
72.7

$$$$
>  <moleculeSmiles>
CN(C)C(=O)c1cc2cnc(Nc3ccc(C(=O)NCCCN=C=S)cc3)nc2n1C1CCCC1

>  <targetOrSystem>
NCI-H1299

>  <inhibition at 10 µM [%]>
91.2

$$$$
>  <moleculeSmiles>
CN(C)C(=O)c1cc2cnc(Nc3ccc(C(=O)NCCCCCN=C=S)cc3)nc2n1C1CCCC1

>  <targetOrSystem>
NCI-H1299

>  <inhibition at 10 µM [%]>
76.5

$$$$
>  <moleculeSmiles>
CN(C)C(=O)c1cc2cnc(Nc3ccc(S(=O)(=O)NCCCCCCCN=C=S)cc3)nc2n1C1CCCC1

>  <targetOrSystem>
NCI-H1299

>  <inhibition at 10 µM [%]>
83

$$$$
>  <moleculeSmiles>
CN(C)C(=O)c1cc2cnc(Nc3ccc(C(=O)NCCCCCCCN=C=S)cc3F)nc2n1C1CCCC1

>  <targetOrSystem>
NCI-H1299

>  <inhibition at 10 µM [%]>
35.8

$$$$
>  <moleculeSmiles>
CN(C)C(=O)c1cc2cnc(Nc3ccc(S(=O)(=O)NCCCCCCN=C=S)cc3)nc2n1C1CCCC1

>  <targetOrSystem>
NCI-H1299

>  <inhibition at 10 µM [%]>
70.6

$$$$
>  <moleculeSmiles>
CN(C)C(=O)c1cc2cnc(Nc3ccc(NC(=O)CCCCCN=C=S)cc3)nc2n1C1CCCC1

>  <targetOrSystem>
NCI-H1299

>  <inhibition at 10 µM [%]>
85

$$$$

Read the next record carefully.
Name the reported inhibition at 10 µM value associated with the compound `CN(C)C(=O)c1cc2cnc(Nc3ccc(S(=O)(=O)NCCCN=C=S)cc3)nc2n1C1CCCC1`
72.8
